Provide the recorded TGI for the entries that follow.
- System: HL-60(TB) leukemia
- TEST SUMMARY: NCI tumour cell line growth inhibition, 48 h
*1 amine or outer side, *2 acyl side, *3 side chain or, on linkers, in order; H or OH if unused. Where a SMILES comes first, the peptide text is derived from it. Bridges are numbered along the chain shown (N, C = ends). Roman numbers before positions name the chains, in order. [ ]: non-standard residue; d: D form. Actinocin(9to1) = Cc1c2oc3c(C)ccc(C(=O)[*:1])c3nc-2c(C(=O)[*:2])c(N)c1=O; NMeV = CN[CH](C(=O)O)C(C)C; Sar = CNCC(=O)O
Entry rule: numbers only, all in µM.

Request the reported TGI associated with COC1=CC(=O)C(C2(OC(C)C)OC(=O)C(Cl)=C2Cl)=CC1=O (configuration not stated) 1.55

Fill in the blank: the reported TGI of Cc1c2oc3c(C)ccc(C(=O)NC4C(=O)NC(C(C)C)C(=O)N5CCCC5C(=O)N(C)CC(=O)N(C)C(C(C)C)C(=O)OC4C)c3nc-2c(C(=O)NC2C(=O)NC(C(C)C)C(=O)N3CCCC3C(=O)N(C)CC(=O)N(C)C(C(C)C)C(=O)OC2C)c(N)c1=O (configuration not stated) (I: TVP[Sar][NMeV] / II: TVP[Sar][NMeV]; ester I:1-I:C, II:1-II:C; linker I:N-II:N via Actinocin(9to1); configuration not given here) is ____. 0.0237

Query (molecule): COc1c(CC(C)=O)ccc2c1C(=O)c1ccc(C=O)c(OC(C)=O)c1C2=O ; field requested: TGI 22.4
